Cited source for all entries: paper PMC4640093

t1/2(1) PLE listing for selected compounds.
# Tested on: pig liver esterase (PLE)
# assay explanation: Enzymatic hydrolysis with pig liver esterase (PLE) in PBS
# Assay type: in vitro ADME
# condition info: removal of first masking unit (half-lives of 3); PLE in PBS pH 7.3, 37 °C

# compound, study system, t1/2(1) PLE / h
rows = [
    ("CCCCCCCCCCCCOC(=O)Oc1ccc(COP(=O)(OCc2ccc(OC(=O)OCCCCCCCCCCCC)cc2)OP(=O)(O)OP(=O)(O)OC[C@@H]2C=C[C@H](n3cc(C)c(=O)[nH]c3=O)O2)cc1 [3n]", "pig liver esterase (PLE)", 44),
    ("CCCCCCCCOC(=O)Oc1ccc(COP(=O)(OCc2ccc(OC(=O)OCCCCCCCC)cc2)OP(=O)(O)OP(=O)(O)OC[C@@H]2C=C[C@H](n3cc(C)c(=O)[nH]c3=O)O2)cc1 [3m]", "pig liver esterase (PLE)", 0.12),
    ("CCCCCCCC/C=C\\CCCCCCCC(=O)Oc1ccc(COP(=O)(OCc2ccc(OC(=O)CCCCCCC/C=C\\CCCCCCCC)cc2)OP(=O)(O)OP(=O)(O)OC[C@@H]2C=C[C@H](n3cc(C)c(=O)[nH]c3=O)O2)cc1 [3k]", "pig liver esterase (PLE)", 42),
    ("CCCCCCCCCCCCCCCC(=O)Oc1ccc(COP(=O)(OCc2ccc(OC(=O)CCCCCCCCCCCCCCC)cc2)OP(=O)(O)OP(=O)(O)OC[C@@H]2C=C[C@H](n3cc(C)c(=O)[nH]c3=O)O2)cc1 [3i, γ-Bis-(4-hexadecanoyloxybenzyl)-d4TTP]", "pig liver esterase (PLE)", 33),
    ("CCC(=O)Oc1ccc(COP(=O)(OCc2ccc(OC(=O)CC)cc2)OP(=O)(O)OP(=O)(O)OC[C@@H]2C=C[C@H](n3cc(C)c(=O)[nH]c3=O)O2)cc1 [3b, γ-Bis-(4-propanoyloxybenzyl)-d4TTP]", "pig liver esterase (PLE)", 0.42),
    ("CCCCCCC(=O)Oc1ccc(COP(=O)(OCc2ccc(OC(=O)CCCCCC)cc2)OP(=O)(O)OP(=O)(O)OC[C@@H]2C=C[C@H](n3cc(C)c(=O)[nH]c3=O)O2)cc1 [3d, γ-Bis-(4-heptanoyloxybenzyl)-d4TTP]", "pig liver esterase (PLE)", 0.013),
    ("CCCCCCCCCCCCCCCCCC(=O)Oc1ccc(COP(=O)(OCc2ccc(OC(=O)CCCCCCCCCCCCCCCCC)cc2)OP(=O)(O)OP(=O)(O)OC[C@@H]2C=C[C@H](n3cc(C)c(=O)[nH]c3=O)O2)cc1 [3j, γ-Bis-(4-octadecanoyloxybenzyl)-d4TTP]", "pig liver esterase (PLE)", 37),
    ("CCCCCCCCCCCCCC(=O)Oc1ccc(COP(=O)(OCc2ccc(OC(=O)CCCCCCCCCCCCC)cc2)OP(=O)(O)OP(=O)(O)OC[C@@H]2C=C[C@H](n3cc(C)c(=O)[nH]c3=O)O2)cc1 [3h, γ-Bis-(4-tetradecanoyloxybenzyl)-d4TTP]", "pig liver esterase (PLE)", 30),
    ("COC(=O)Oc1ccc(COP(=O)(OCc2ccc(OC(=O)OC)cc2)OP(=O)(O)OP(=O)(O)OC[C@@H]2C=C[C@H](n3cc(C)c(=O)[nH]c3=O)O2)cc1 [3l]", "pig liver esterase (PLE)", 3.8),
]

----------
# Tested on: HIV-1(IIIB)
# assay explanation: Anti-HIV activity assay, HIV-1 in wild-type CEM/0 cells
# Assay type: cell-based
# condition info: HIV-induced giant cell formation, mean±s.d., n=2–3
pEC50: −log10 of the molar value.
pEC50 listing for selected molecules.

# chem smiles, pEC50
data = [
    ("CC(=O)Oc1ccc(COP(=O)(OCc2ccc(OC(C)=O)cc2)OP(=O)(O)OP(=O)(O)OC[C@@H]2C=C[C@H](n3cc(C)c(=O)[nH]c3=O)O2)cc1", 6.37),
    ("CCCCCCCCCCCCCC(=O)Oc1ccc(COP(=O)(OCc2ccc(OC(=O)CCCCCCCCCCCCC)cc2)OP(=O)(O)OP(=O)(O)OC[C@@H]2C=C[C@H](n3cc(C)c(=O)[nH]c3=O)O2)cc1", 6.30),
    ("CCC(=O)Oc1ccc(COP(=O)(OCc2ccc(OC(=O)CC)cc2)OP(=O)(O)OP(=O)(O)OC[C@@H]2C=C[C@H](n3cc(C)c(=O)[nH]c3=O)O2)cc1", 6.34),
    ("CCCCCCC(=O)Oc1ccc(COP(=O)(OCc2ccc(OC(=O)CCCCCC)cc2)OP(=O)(O)OP(=O)(O)OC[C@@H]2C=C[C@H](n3cc(C)c(=O)[nH]c3=O)O2)cc1", 6.44),
    ("CCCCCCCCCCCC(=O)Oc1ccc(COP(=O)(OCc2ccc(OC(=O)CCCCCCCCCCC)cc2)OP(=O)(O)OP(=O)(O)OC[C@@H]2C=C[C@H](n3cc(C)c(=O)[nH]c3=O)O2)cc1", 6.68),
]

----------
# Test system: pig liver esterase (PLE)
# assay explanation: Enzymatic hydrolysis with pig liver esterase (PLE) in PBS
# Format: in vitro ADME
# condition info: removal of first masking unit (half-lives of 3); PLE in PBS pH 7.3, 37 °C
quantity name: t1/2(1) PLE

# chem smiles, endpoint result
measured = [
    ("CCCCCCCCCCCC(=O)Oc1ccc(COP(=O)(OCc2ccc(OC(=O)CCCCCCCCCCC)cc2)OP(=O)(O)OP(=O)(O)OC[C@@H]2C=C[C@H](n3cc(C)c(=O)[nH]c3=O)O2)cc1", "57 min"),
    ("CC(=O)Oc1ccc(COP(=O)(OCc2ccc(OC(C)=O)cc2)OP(=O)(O)OP(=O)(O)OC[C@@H]2C=C[C@H](n3cc(C)c(=O)[nH]c3=O)O2)cc1", "114 min"),
    ("CCCCC(=O)Oc1ccc(COP(=O)(OCc2ccc(OC(=O)CCCC)cc2)OP(=O)(O)OP(=O)(O)OC[C@@H]2C=C[C@H](n3cc(C)c(=O)[nH]c3=O)O2)cc1", "3.78 min"),
]

----------
# Test system: CD4+ T-cell (CEM)
# assay explanation: Cytotoxicity: inhibition of CEM cell proliferation
# Format: cell-based, human
# condition info: 50% cytostatic concentration, mean±s.d., n=2–3

# chem smiles, study system, CC50
rows = [
    ("CCCCCCCCCCCCCC(=O)Oc1ccc(COP(=O)(OCc2ccc(OC(=O)CCCCCCCCCCCCC)cc2)OP(=O)(O)OP(=O)(O)OC[C@@H]2C=C[C@H](n3cc(C)c(=O)[nH]c3=O)O2)cc1", "CD4+ T-cell (CEM)", "28 µM"),
    ("CCCCCCCCCCCCCCCC(=O)Oc1ccc(COP(=O)(OCc2ccc(OC(=O)CCCCCCCCCCCCCCC)cc2)OP(=O)(O)OP(=O)(O)OC[C@@H]2C=C[C@H](n3cc(C)c(=O)[nH]c3=O)O2)cc1", "CD4+ T-cell (CEM)", "61 µM"),
    ("CCCCCCCCCC(=O)Oc1ccc(COP(=O)(OCc2ccc(OC(=O)CCCCCCCCC)cc2)OP(=O)(O)OP(=O)(O)OC[C@@H]2C=C[C@H](n3cc(C)c(=O)[nH]c3=O)O2)cc1", "CD4+ T-cell (CEM)", "34 µM"),
    ("COC(=O)Oc1ccc(COP(=O)(OCc2ccc(OC(=O)OC)cc2)OP(=O)(O)OP(=O)(O)OC[C@@H]2C=C[C@H](n3cc(C)c(=O)[nH]c3=O)O2)cc1", "CD4+ T-cell (CEM)", "16 µM"),
]

----------
# assay explanation: Chemical hydrolysis in PBS, pH 7.3
# Format: physicochemical
# condition info: second hydrolysis step, half-lives of intermediate 4 to give d4TTP 19; PBS pH 7.3, 37 °C

# compound, t1/2(2) PBS, pH=7.3
measured = [
    ("CCCCCCCCC(=O)Oc1ccc(COP(=O)(OCc2ccc(OC(=O)CCCCCCCC)cc2)OP(=O)(O)OP(=O)(O)OC[C@@H]2C=C[C@H](n3cc(C)c(=O)[nH]c3=O)O2)cc1 [3e, γ-Bis-(4-nonanoyloxybenzyl)-d4TTP]", "390 h"),
    ("CC(=O)Oc1ccc(COP(=O)(OCc2ccc(OC(C)=O)cc2)OP(=O)(O)OP(=O)(O)OC[C@@H]2C=C[C@H](n3cc(C)c(=O)[nH]c3=O)O2)cc1 [3a, γ-Bis-(4-acetyloxybenzyl)-d4TTP]", "75 h"),
    ("CCCCCCCCC(=O)Oc1ccc(COP(=O)(O)OP(=O)(O)OP(=O)(O)OC[C@@H]2C=C[C@H](n3cc(C)c(=O)[nH]c3=O)O2)cc1 [4e, γ-Mono-(4-nonanoyloxybenzyl)-d4TTP]", "237 h"),
    ("CC(=O)Oc1ccc(COP(=O)(O)OP(=O)(O)OP(=O)(O)OC[C@@H]2C=C[C@H](n3cc(C)c(=O)[nH]c3=O)O2)cc1 [4a, γ-Mono-(4-acetyloxybenzyl)-d4TTP]", "95 h"),
    ("CCCCCCCCCC(=O)Oc1ccc(COP(=O)(OCc2ccc(OC(=O)CCCCCCCCC)cc2)OP(=O)(O)OP(=O)(O)OC[C@@H]2C=C[C@H](n3cc(C)c(=O)[nH]c3=O)O2)cc1 [3f, γ-Bis-(4-decanoyloxybenzyl)-d4TTP]", "350 h"),
]
